All figures here come from paper PMC5540273.

test system: JNK1; construct: gene MAPK8; settings: concentration: 1 μM, replicates: in singlicate; n = 1;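 also: KINOMEscan kinase panel screen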
measurement label: %Inh (%)

>>> numeric_value("Cc1ccccc1Cn1ccn2c(=O)cc(N3CCOCC3)nc12")
21
>>> numeric_value("O=C(Nc1n[nH]c2cc(-c3ccsc3)ccc12)C1CC1")
36
>>> numeric_value("CNc1cc(-c2ccc3c(N)n[nH]c3c2)nc(N)n1")
0
>>> numeric_value("CSc1ccc(-c2nc3n(c2-c2ccncc2)CCC3)cc1")
31
>>> numeric_value("COc1cccc(CNC(=O)NC2CCN(c3ccnc(Nc4ccc(F)cc4)n3)C2)c1 (stereo not shown)")
32
>>> numeric_value("CNc1nc(-c2ccc3c(N)n[nH]c3c2)cc(N2C[C@@H](C(=O)Nc3ccccc3)CC[C@H]2C)n1")
2
>>> numeric_value("Cc1c(Cn2c3ccccc3n3c(=O)cc(N4CCOCC4)nc23)cccc1C(F)(F)F")
21
>>> numeric_value("COC(=O)C(NC(=O)NC1CCN(c2ccnc(Nc3ccc(F)cc3)n2)C1)c1ccccc1 (stereo not shown)")
1
>>> numeric_value("Cc1ccc(NC(=O)Nc2ccccc2F)cc1-c1ccc(C(=O)Nc2ccncc2)cc1")
28
>>> numeric_value("CC[C@@H]1CO[C@H](C(=O)Nc2ccccc2)CN1c1cc(-c2ccc3c(N)n[nH]c3c2)nc(NC)n1")
0
>>> numeric_value("COc1cc2ncnc(Nc3cccc(Br)c3)c2cc1OC.Cl")
18
>>> numeric_value("CC(=O)c1cccc(NC(=O)NC2CCN(c3ccnc(Nc4ccc(F)cc4)n3)C2)c1 (stereo not shown)")
16
>>> numeric_value("COc1ccc(Nc2nccc(NCCNC(=O)Nc3cc(C)ccc3C)n2)cc1")
20

###

system: RSK4(Kin.Dom.1-N-terminal); construct: gene RPS6KA6; settings: concentration: 1 μM, replicates: in singlicate; n = 1
measurement label: %Inh (%)

>>> numeric_value("O=C(Nc1n[nH]c2nc(-c3cccs3)c(Br)cc12)C1CCCC1 [SB-743341]")
26
>>> numeric_value("CCc1ccc(-c2ccc3c(c2)-c2n[nH]cc2S(=O)(=O)N3C)cc1")
1
>>> numeric_value("COc1ccc2cc(-c3nc(-c4ccccc4C(C)C)[nH]c3-c3ccncc3)ccc2c1 [SB-660566]")
25
>>> numeric_value("Cc1cnc(N)c(/C=C/c2cncc(C(=O)NCCc3ccc(Cl)cc3Cl)c2)c1.Cl [GSK190937]")
0
>>> numeric_value("CNC(=O)c1ccc(C)c(-n2c(C)cc(OCc3ccc(F)cc3F)c(Br)c2=O)c1")
0
>>> numeric_value("COc1cccc(C2=C(Nc3cc(Cl)c(O)c(Cl)c3)C(=O)NC2=O)c1 [SB-390767]")
0
>>> numeric_value("COc1cc2ncnc(Nc3cccc(Br)c3)c2cc1OC.Cl [GI230329]")
0
>>> numeric_value("CCCCc1nn2ncccc2c1-c1ccnc(NC2CC2)n1 [GW684374]")
0
>>> numeric_value("CCn1c(-c2c(N)noc2C)nc2cnccc21 [SB-737856]")
0

###

test system: BIKE; construct: gene BMP2K; conditions: concentration: 1 μM, replicates: in singlicate; n = 1
%Inh: recorded values
measurement label: %Inh

>>> result("CC(C)c1ccc(O)cc1Nc1ccnc2ccc(C(F)(F)F)cc12")
"13%"
>>> result("CC[C@@H]1CO[C@H](C(=O)Nc2ccccc2)CN1c1cc(-c2ccc3c(N)n[nH]c3c2)nc(NC)n1")
"15%"
>>> result("O=C1NC(=O)C(c2ccc(Cl)cc2)=C1Nc1ccc(O)cc1")
"4%"
>>> result("COc1cccc(NC(=O)Nc2ccc(C)c(-c3ccc(C(=O)Nc4ccncc4)cc3)c2)c1")
"26%"
>>> result("COC(=O)C(NC(=O)NC1CCN(c2ccnc(Nc3ccc(F)cc3)n2)C1)c1ccccc1 (stereo not shown)")
"8%"
>>> result("Cl.Cl.Cl.N#Cc1ccc(CCNc2nccc(-c3cccc(CN4CCNCC4)c3)n2)cc1")
"25%"
>>> result("CS(=O)(=O)CCNCc1nc(-c2ccc3ncnc(Nc4ccc(OCc5ccccc5)c(Cl)c4)c3c2)cs1.Cl")
"0%"

###

Reported %Inh by item:
tested on: CAMK2G; settings: concentration: 1 μM, replicates: in singlicate; n = 1
measurement label: %Inh (%)

>>> numeric_value("CS(=O)(=O)Cc1ccc(Nc2nccc(-c3c(-c4cccc(NC(=O)C5CCCCC5)c4)nn4ncccc34)n2)cc1 [GSK350559]")
0
>>> numeric_value("O=c1cc(N2CCOCC2)nc2n(Cc3cccc(Cl)c3Cl)c3ccccc3n12 [GSK2299009]")
33
>>> numeric_value("O=C(Nc1n[nH]c2nc(-c3cccs3)c(Br)cc12)C1CC1 [SB-735297]")
11
>>> numeric_value("Fc1ccc(-c2nc[nH]c2-c2ccncc2)cc1 [SB-217360]")
0
>>> numeric_value("Cn1cnc2c(N)ncnc21 [SKF-97623]")
0
>>> numeric_value("COc1ccc(CSc2nnc(-c3ccc4ncsc4c3)o2)cc1C(F)(F)F")
0
>>> numeric_value("Cc1nccc(-c2c(-c3ccc(F)cc3)ncn2CCCN2CCOCC2)n1.Cl [SB-282975]")
0

###

test system: LKB1; construct: gene STK11; conditions: concentration: 1 μM, replicates: in singlicate; n = 1
Item-by-item account of %Inh
measurement label: %Inh (%)

>>> numeric_value("CNc1nc(-c2ccc3c(N)n[nH]c3c2)cc(N2C[C@@H](C(=O)NC3CCCCC3)OC[C@H]2C)n1")
0
>>> numeric_value("Cc1cnc(N)c(/C=C/c2cncc(C(=O)NCCc3ccc(Cl)cc3Cl)c2)c1.Cl")
28
>>> numeric_value("Cl.Cl.Cl.N#Cc1ccc(CCNc2nccc(-c3cccc(CN4CCNCC4)c3)n2)cc1")
1
>>> numeric_value("O=C1NC(=O)C(c2ccc(Cl)cc2)=C1Nc1cccc(Cl)c1")
23
>>> numeric_value("COC(=O)C(NC(=O)NC1CCN(c2ccnc(Nc3ccc(F)cc3)n2)C1)c1ccccc1 (stereo not drawn)")
15
>>> numeric_value("CCn1c(-c2ccccc2)nc2cnccc21")
0

###

test system: PRKD2; conditions: concentration: 1 μM, replicates: in singlicate; n = 1
measurement label: %Inh (%)

>>> numeric_value("COc1nccc(-c2c(-c3ccc(F)cc3)ncn2CCCN2CCOCC2)n1 [SB-282852]")
6
>>> numeric_value("Nc1cccc(-c2ccc3c(N)n[nH]c3c2)n1 [GSK2192730]")
0
>>> numeric_value("CNc1cc(-c2ccc3c(N)n[nH]c3c2)nc(N)n1 [GSK2224810]")
6
>>> numeric_value("Nc1nccc(-c2c(-c3ccc(F)cc3)ncn2C2CCN(Cc3ccccc3)CC2)n1 [SB-219980]")
3
>>> numeric_value("O=C(Nc1n[nH]c2nc(-c3ccco3)c(Br)cc12)C1CCN(Cc2ccccc2)C1.O=C(O)[C@H](O)[C@@H](O)C(=O)O (stereo not drawn) [SB-742034]")
0
>>> numeric_value("Fc1ccc(-c2nc[nH]c2-c2ccncc2)cc1 [SB-217360]")
0
>>> numeric_value("O=c1cc(N2CCOCC2)nc2n(Cc3cccc(Cl)c3Cl)c3ccccc3n12 [GSK2299009]")
0
>>> numeric_value("CN1c2ccc(-c3ccc(C(N)=O)cc3)cc2-c2[nH]ncc2S1(=O)=O")
80
>>> numeric_value("COc1cccc(C2=C(Nc3cc(Cl)c(O)c(Cl)c3)C(=O)NC2=O)c1 [SB-390767]")
0

###

Listing of entries alongside the reported %Inh.
tested on: ZAK; details: concentration: 1 μM, replicates: in singlicate; n = 1
measurement label: %Inh (%)

>>> numeric_value("COc1cccc(C2=C(Nc3cc(Cl)c(O)c(Cl)c3)C(=O)NC2=O)c1 [SB-390767]")
0
>>> numeric_value("CNCc1ccc2nc(NC(=O)c3ccc(C(C)(C)C)cc3)cn2c1")
3
>>> numeric_value("O=C1NC(=O)C(c2ccc(Cl)cc2)=C1Nc1ccc(O)cc1 [SB-340867]")
22
>>> numeric_value("O=C(Nc1n[nH]c2nc(-c3cccs3)c(Br)cc12)C1CCCC1 [SB-743341]")
19
>>> numeric_value("Cc1ccccc1Cn1ccn2c(=O)cc(N3CCOCC3)nc12 [GSK2269905]")
0
>>> numeric_value("COc1ccc(Nc2nccc(NCCNC(=O)Nc3cc(C)ccc3C)n2)cc1 [GSK1379899]")
3
>>> numeric_value("CC(=O)c1c(C)c2cnc(Nc3ccc(N4CCNCC4)cn3)nc2n(C2CCCC2)c1=O")
0
>>> numeric_value("O=c1cc(N2CCOCC2)nc2n(Cc3ccccc3F)ccn12 [GSK2297428]")
0
>>> numeric_value("Cl.Cl.Cl.N#Cc1ccc(CCNc2nccc(-c3cccc(CN4CCNCC4)c3)n2)cc1 [GSK2137462]")
10
